The reported measurements were obtained from patent US20260174739A1.

Experiment: In vivo metabolism (pharmacokinetic) experiment in mice
Design: species or system male ICR mice
Details: male, ICR, mouse, po, 10 mg/kg, male ICR mice, oral 10 mg/kg vs iv 2.5 mg/kg, read-out: F (%)
Protocol: Animal: male ICR mice. The animals were randomly assigned to treatment groups and fasted for 12 h prior to dosing. Drug: the compound of the present disclosure was dissolved in a vehicle (5% DMSO+5% Solutol HS15+90% saline). […] Data analysis: drug concentrations below the lower limit of quantification (LLOQ) were considered zero. Pharmacokinetic parameters were analyzed using PK Solver with a non-compartmental, bolus injection or extravascular input analysis models. […]
Would you please tag the item MET when its bioavailability is 70% or above, and NOT MET when it is below?

Study these solved cases before continuing.
compound | label
Nc1nc2c(s1)CC(N)(c1ccccc1)CC2 (racemic) | MET
NC1(c2ccccc2)CCc2ncsc2C1 (racemic) | MET
CCCNC1(c2ccccc2)CCc2nc(N)sc2C1 (racemic) | NOT MET

QUERY: Is it the case that CCNC1(c2ccccc2)CCc2nc(N)sc2C1 (racemic) has bioavailability reaching or exceeding 70%?
RESULT: NOT MET

----------
Experiment: In vivo metabolism (pharmacokinetic) experiment in mice
Parameters: species or system male ICR mice
Settings: male, ICR, mouse, po, 10 mg/kg, F (%)
metric-name: bioavailability (%)
// note: answer is a bare numeric in %

QUERY: Write down bioavailability measured for item CNC1(c2ccccc2)CCc2nc(N)sc2C1 (racemic) [rac-A3]
RESULT: 56

----------
Target: UniProtKB P31645
Sequence (P31645 whole entry): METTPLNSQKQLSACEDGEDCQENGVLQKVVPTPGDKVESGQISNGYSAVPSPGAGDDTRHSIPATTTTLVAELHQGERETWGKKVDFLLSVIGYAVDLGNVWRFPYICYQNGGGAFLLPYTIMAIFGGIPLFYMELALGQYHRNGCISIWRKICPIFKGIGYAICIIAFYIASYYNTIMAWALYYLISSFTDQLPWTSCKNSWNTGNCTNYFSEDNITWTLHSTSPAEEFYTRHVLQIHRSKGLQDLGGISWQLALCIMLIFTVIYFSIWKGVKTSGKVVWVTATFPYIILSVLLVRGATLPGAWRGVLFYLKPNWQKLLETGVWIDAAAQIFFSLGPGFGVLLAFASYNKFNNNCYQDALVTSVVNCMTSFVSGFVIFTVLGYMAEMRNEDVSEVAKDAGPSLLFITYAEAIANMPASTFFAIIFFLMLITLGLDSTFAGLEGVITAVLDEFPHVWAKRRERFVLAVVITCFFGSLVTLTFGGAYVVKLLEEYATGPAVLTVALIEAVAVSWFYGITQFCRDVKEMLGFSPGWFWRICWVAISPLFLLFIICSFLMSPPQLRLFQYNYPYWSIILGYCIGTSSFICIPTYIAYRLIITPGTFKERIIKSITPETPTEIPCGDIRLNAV
Assay: Inhibitory activity assay against 5-HT transporter (neurotransmitter transporter uptake assay kit)
Conditions: HEK-293 cells overexpressing human SERT; read-out: 5-HTT (IC50)
Structures can show the parent of a compound that is named as a salt.
metric-name: pIC50
Answer as the number alone; pIC50 is minus log10 of concentration in mol/L.

compound | pIC50
c1ccc(C2(N3CCCC3)CCc3oncc3C2)cc1 (racemic) [rac-A55] | 5.14

QUERY: Give reported pIC50 value for COc1cccc(C2(N)CCc3nc(-c4ccccc4)sc3C2)c1 (racemic) [rac-A319, hydrochloride]
RESULT: 6.01

QUERY: Look up pIC50 of CN[C@]1(c2ccccc2)CCc2nc(N)sc2C1 [R-A3] and report it.
RESULT: 5.92

QUERY: Check the records and state pIC50 for COc1cccc(C2(N)CCc3c(sc(=O)n3C)C2)c1 (racemic) [rac-A299, hydrochloride]
RESULT: 6.28

----------
Experiment: Human liver microsome assay (metabolic stability)
Assay type: in vitro ADME
Conditions: human, microsomes, pH 7.4
metric-name: CLint scaled at 1 μM (mL/min/kg)
Hi! Could you send only the number? It should be in mL/min/kg, unit omitted.

compound | CLint scaled at 1 μM [mL/min/kg]
c1ccc(C2(N3CCCC3)CCc3[nH]ncc3C2)cc1 (racemic) | 12.4

Please examine the following record next.
QUERY: Give the reported CLint scaled at 1 μM for this compound. Nc1nc2c(s1)CC(c1ccccc1)(N1CCCCC1)CC2 (racemic)
RESULT: 7.4

----------
pIC50 values, listed per item
Target: NMDA receptor (N-methyl-D-aspartate receptor, NR1/2A) (Homo sapiens, UniProt Q05586+Q12879)
Construct: T2A self-cleaving peptide (linker between NR1 and 2A) (C)
Sequence (Q12879 23-1464, other chains not shown): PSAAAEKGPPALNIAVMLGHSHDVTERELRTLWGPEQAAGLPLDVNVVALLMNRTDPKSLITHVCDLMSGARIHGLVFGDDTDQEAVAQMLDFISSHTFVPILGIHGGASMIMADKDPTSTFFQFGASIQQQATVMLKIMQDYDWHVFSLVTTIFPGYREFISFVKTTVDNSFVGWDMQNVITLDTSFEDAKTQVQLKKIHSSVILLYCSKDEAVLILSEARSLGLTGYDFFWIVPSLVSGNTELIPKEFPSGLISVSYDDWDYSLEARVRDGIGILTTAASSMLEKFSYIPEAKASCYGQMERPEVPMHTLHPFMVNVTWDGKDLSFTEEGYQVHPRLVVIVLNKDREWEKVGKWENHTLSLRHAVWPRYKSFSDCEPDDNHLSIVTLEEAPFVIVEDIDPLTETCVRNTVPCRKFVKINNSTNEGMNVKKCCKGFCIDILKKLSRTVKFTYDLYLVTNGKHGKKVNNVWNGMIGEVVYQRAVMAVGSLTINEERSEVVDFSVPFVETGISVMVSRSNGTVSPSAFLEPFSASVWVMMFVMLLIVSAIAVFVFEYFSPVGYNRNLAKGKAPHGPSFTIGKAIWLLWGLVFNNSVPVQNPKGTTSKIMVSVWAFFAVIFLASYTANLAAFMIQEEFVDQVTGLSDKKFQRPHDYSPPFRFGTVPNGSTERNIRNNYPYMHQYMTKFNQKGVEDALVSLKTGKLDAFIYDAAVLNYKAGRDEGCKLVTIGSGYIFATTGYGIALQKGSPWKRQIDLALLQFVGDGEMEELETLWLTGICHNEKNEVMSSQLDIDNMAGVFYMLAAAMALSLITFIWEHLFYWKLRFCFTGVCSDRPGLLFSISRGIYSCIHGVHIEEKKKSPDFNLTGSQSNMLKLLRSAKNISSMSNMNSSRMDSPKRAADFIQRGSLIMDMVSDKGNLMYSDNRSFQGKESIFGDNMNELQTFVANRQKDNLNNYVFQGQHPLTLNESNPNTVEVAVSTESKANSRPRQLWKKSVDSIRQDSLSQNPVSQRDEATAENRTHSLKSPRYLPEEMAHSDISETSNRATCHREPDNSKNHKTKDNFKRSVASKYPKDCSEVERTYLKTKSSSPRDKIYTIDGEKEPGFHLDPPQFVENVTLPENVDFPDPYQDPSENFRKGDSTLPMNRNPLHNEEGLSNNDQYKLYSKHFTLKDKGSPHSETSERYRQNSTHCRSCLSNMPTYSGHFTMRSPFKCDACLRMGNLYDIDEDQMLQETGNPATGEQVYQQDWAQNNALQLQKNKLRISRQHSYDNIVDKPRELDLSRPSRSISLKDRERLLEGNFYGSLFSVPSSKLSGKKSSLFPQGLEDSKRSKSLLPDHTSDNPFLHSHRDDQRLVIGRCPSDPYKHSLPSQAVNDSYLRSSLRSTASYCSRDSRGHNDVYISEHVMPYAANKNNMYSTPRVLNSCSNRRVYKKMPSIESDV
Assay: NMDA receptor antagonistic activity assay (whole cell manual patch clamp, channel currents)
Assay type: cell-based
Settings: HEK293 cells transiently expressing hNR1/2A; current evoked by 100 μM glutamic acid + 100 μM glycine at -70 mV; read-out: NMDAR antagonistic activity (IC50)
pIC50 is defined as minus the log10 of a concentration measured in mol/L.

Worked examples follow.
substance-smiles | pIC50
c1ccc([C@@]2(N3CCCCC3)CCc3[nH]ncc3C2)cc1 | 4.80
CN[C@@]1(c2ccccc2)CCc2ncsc2C1 | 5.60

QUERY: Output pIC50 of c1ccc([C@]2(N3CCCC3)CCc3[nH]ncc3C2)cc1
RESULT: 6.74

QUERY: Return reported pIC50. Input compound: c1ccc([C@]2(N3CCCCC3)CCc3[nH]ncc3C2)cc1
RESULT: 6.08
